- Assay Target: HIV-1LAI envelope gp120 (Human immunodeficiency virus type 1 group M subtype B, UniProt P03377)
- Format: binding
- Details: Panel D, 9-mers and 12-mers of CD4; empty control […]
Give COUNTS of radiolabeled gp120 retained for every item shown.
Please answer using a numeric value trailed by its unit.

// for each sequence below, give its COUNTS of radiolabeled gp120 retained
1. IIKNLKIED
2. LVFGLTANSDTH

Solution:
658 counts
586 counts

Would you be so kind as to report COUNTS of radiolabeled gp120 retained for each listed record?
1. SDTYICEVEDQK
2. GLTANSDTH
3. EDSDTYICE
4. PLIIKNLKIEDS
5. KNLKIEDSD
6. FPLIIKNLK
7. QLLVFGLTA
8. TYICEVEDQ

Solution:
["846 counts", "481 counts", "650 counts", "565 counts", "612 counts", "601 counts", "822 counts", "805 counts"]

====

- Assay Target: HIV-1LAI envelope gp120 (Human immunodeficiency virus type 1 group M subtype B, UniProt P03377)
- Format: binding
- Details: Panel C, 15-mers and 18-mers of CD4; empty control 556
Metric Name: COUNTS of radiolabeled gp120 retained
The number alone won't do; follow it with the unit.

Please review the following examples before continuing.
IVYKKEGEQVEFSFP | 615 counts
KIDIVVLAFQKASSIVYK | 779 counts
EFKIDIVVLAFQKASSIV | 799 counts

Parameter requested: COUNTS of radiolabeled gp120 retained. Apply to each item below.
1. VLQNQKKVEFKIDIV
2. AFTVEKLTGSGELWWQAE
3. LAFQKASSIVYKKEG
4. ASSIVYKKEGEQVEF
5. QKASSIVYKKEGEQVEFS
6. VEFKIDIVVLAFQKASSI
7. PLAFTVEKLTGSGEL
8. TVLQNQKKVEFKIDI

Solution:
1. 605 counts
2. 788 counts
3. 593 counts
4. 589 counts
5. 602 counts
6. 819 counts
7. 612 counts
8. 587 counts

For every item in the list below, what is its measured COUNTS of radiolabeled gp120 retained?
1. AFTVEKLTGSGELWW
2. FPLAFTVEKLTGSGELWW
3. DIVVLAFQKASSIVY

Solution:
1. 586 counts
2. 586 counts
3. 776 counts

====

- Assay Target: HIV-1LAI envelope gp120 (Human immunodeficiency virus type 1 group M subtype B, UniProt P03377)
- Assay type: binding
- Details: STRL33 18-mer scan; background subtracted; second of two count columns
Outcome: met for radioactive counts recorded in twenty minutes of at least 900 counts; not met for anything lower.

Examples with answers:
EEHQAFLQFSKVFLPCMY [STRL33 segment 21-38] | met
KLVKDIGCLPYLGVSHQW [STRL33 segment 301-318] | not met
DYGFSSFNDSSQEEHQAF [STRL33 segment 9-26] | met
FLVNLPLADLVFVCTLPF [STRL33 segment 69-86] | not met
AYLRACLNPVLYAFVSLK [STRL33 segment 277-294] | met
LLTQMPFNLMKFIRSTHW | met
AGGFQKHRSLKIIFLVMA | not met
QKHRSLKIIFLVMAVFLL [STRL33 segment 225-242] | not met

Exercise: // inclusive: radioactive counts recorded in twenty minutes at least 900 counts? input: "MTWGKVTSLLIWVISLLV"
Solution: not met

Exercise: Hi, just wondering whether NSIYLVISIFYHKLQSLT [STRL33 segment 49-66] shows radioactive counts recorded in twenty minutes of 900 counts or higher.
Solution: met

Exercise: Please check the record LPLADLVFVCTLPFWAYA [STRL33 segment 73-90] and state if its radioactive counts recorded in twenty minutes is at or above 900 counts.
Solution: met
